# Test Protocol: Solubility of the active material in water
# Type: physicochemical
Measurement Label: solubility

Requested read-out: solubility. Entry: CCCc1c(-c2ccccc2)nn(-c2ccccn2)c1O
~3.4 µg/mL
